Target: p53-Mdm2 interaction (N-terminal domain of Mdm2 protein, amino acids 1-111) (Homo sapiens, UniProt Q00987)
Construct: N-terminal domain of Mdm2 protein (amino acids 1-111)
Sequence (Q00987 1-111): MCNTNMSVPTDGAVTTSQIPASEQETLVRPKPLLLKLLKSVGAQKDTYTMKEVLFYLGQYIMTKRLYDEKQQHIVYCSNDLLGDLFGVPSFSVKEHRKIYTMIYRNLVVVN
Assay: Fluorescence polarization (FP) binding assay of p53-Mdm2 interaction
Conditions: FP assay, 130 nM Mdm2, FAM-labelled p53 peptide; Ki transformed from IC50 using Kenakin equation
ENDPOINT: Ki (nM)

Recorded Ki, per entry:
Cc1ccc(Cl)cc1N1C(=O)C(O)=C(C(=O)C(C)C)C12C(=O)Nc1cc(Cl)ccc12 (centres unmarked) | 120
COc1ccccc1-n1nc2c(c1C(C)C)C1(C(=O)Nc3cc(Cl)ccc31)N(c1cncc(Cl)c1)C2=O (centres unmarked) | 5.6

[a] Cc1ccc(Cl)cc1N1C(=O)c2n[nH]c(C(C)C)c2C12C(=O)Nc1cc(Cl)ccc12 (centres unmarked)
[b] COc1ccccc1-n1cc2c(c1C(C)C)C1(C(=O)Nc3cc(Cl)ccc31)N(c1cc(Cl)ccc1C(=O)O)C2=O (centres unmarked)
[c] COc1ccccc1-n1nc2c(c1C(C)C)[C@@]1(C(=O)Nc3cc(Cl)ccc31)N(c1cc(Cl)ccc1C)C2=O
Exercise: Put these in order: smallest Ki first, largest last. I'd appreciate it if you listed the labels in the requested order.
Solution: c, b, a
(c: 1.9 nM, b: 4.3 nM, a: 20 nM)
